- TEST: Stability of compound in PBS/ACN-DMSO assessed as compound degradation at 10 uM measured after 3 hrs by LC-MS analysis
- Assay type: physicochemical
- STATED CONDITIONS: read-out: Drug degradation
MEASUREMENT KIND: degraded at 3 h, 10 µM (%)
Note: unit % is implicit; provide only the numeric part.

*Q* Which measured degraded at 3 h, 10 µM value corresponds to Cc1sc2c(c1C)C(c1ccc(Cl)cc1)=N[C@@H](CC(=O)NCCCCNC(=O)COc1cccc3c1C(=O)N(C1CCC(=O)NC1=O)C3=O)c1nnc(C)n1-2 (stereo partly specified) ?
*A* 10
